assay notes: inhibitors of E-selectin induction by TNFa, primary screen, imaging, HUVEC, immunofluorescence, MLSMR starter and 10KST1 sets (AID 487);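 further: signal is fraction of cell area covered by stained E-selectin grains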
experimental setup: HUVEC TNFalpha-induced E-selectin immunofluorescence imaging, at 2 µM; hits give high values
// label = rule met if inhibition is not less than -50%, otherwise rule not met

[
  {
    "compound": "CCOC(=O)c1[nH]c2cc(OC)c(OC)cc2c1NC(=O)C(C)N1CCN(Cc2ccccc2)CC1 (configuration not stated)",
    "category label": "rule met"
  }
]

Incoming: Tell me whether inhibition is at least -50% here: `CCCc1cc(=O)oc2c(CN3CCN(C)CC3)c(O)c(Cl)cc12`
Outgoing: rule met

Incoming: Repeat for the following compound: `O=S(=O)(O)c1nc2ccccc2n1Cc1ccc(Cl)cc1Cl`
Outgoing: rule not met

Incoming: # repeat for O=C(O)CCCCCCC1C(=O)NC(=O)N1CCC(O)C1CCCCC1 (configuration not stated)
Outgoing: rule not met

Incoming: Same question for O=C(O)c1cc2n(n1)C(C(F)(F)F)CC(c1ccccc1)N2 (configuration not stated) please.
Outgoing: rule not met

Incoming: Follow-up item: `O=C(O)c1ccccc1Nc1cccc(C(F)(F)F)c1`
Outgoing: rule met

Incoming: Then what about the compound `C=CCNc1nc(-c2cccc(OC)c2O)nc2ccccc12` ?
Outgoing: rule not met

Incoming: Further, for `CC(C)Cn1cnc2c(c1=O)c1nc3ccccc3nc1n2Cc1ccc2c(c1)OCO2` ?
Outgoing: rule met

Incoming: Okay, and `Cc1ccccc1-c1nn2c(-c3ccccc3)nnc2s1` ?
Outgoing: rule not met

Incoming: Request: C[N+]12CCC(CC1)C(OC(=O)C(O)(c1ccccc1)c1ccccc1)C2 (configuration not stated)
Outgoing: rule not met

Incoming: Would you kindly repeat that for `Cc1nnc(SCC(=O)N2CCC(C(N)=O)CC2)s1` ?
Outgoing: rule not met

Incoming: # iterate: COc1ccccc1C1(CC(=O)N2CCOCC2)CCOC(C(C)C)C1 (configuration not stated)
Outgoing: rule met

Incoming: Okay, and `CCCC(=O)O[C@]1(C(=O)CCl)[C@@H](C)C[C@H]2[C@@H]3CCC4=CC(=O)C=C[C@]4(C)[C@@]3(F)C(=O)C[C@@]21C` ?
Outgoing: rule not met

Incoming: What about this compound? Cn1c(NCC(O)c2ccccc2)nc2c1c(=O)n(Cc1ccc(Cl)c(Cl)c1)c(=O)n2C (configuration not stated)
Outgoing: rule met

Incoming: // query: OCC(O)CN1CCN(c2ccccc2)CC1 (configuration not stated)
Outgoing: rule not met

Incoming: Then this compound: COc1ccccc1N1CCN(CC(O)COc2cccc3ccccc23)CC1 (configuration not stated)
Outgoing: rule met

Incoming: Now the compound CC[C@]1(O)CC2CN(CCc3c([nH]c4ccccc34)[C@@](C(=O)OC)(c3cc4c(cc3OC)N(C=O)[C@H]3[C@@](O)(C(=O)OC)[C@H](OC(C)=O)[C@]5(CC)C=CCN6CC[C@]43[C@@H]65)C2)C1 (some centres not stated)
Outgoing: rule not met

Incoming: // same read-out, input: COc1cccc(C2C(C(=O)c3cccs3)=C(O)C(=O)N2c2cc(C)on2)c1 (configuration not stated)
Outgoing: rule not met

Incoming: Now try `CC(=O)N1CC=C2C(C#N)=C(N)C(C#N)(C#N)[C@H](c3ccoc3)[C@H]2C1` .
Outgoing: rule not met

Incoming: Note, next up: `CCCC(=O)N1CCN(c2nc(CC(C)C)c3c(c2C#N)CCC3)CC1`
Outgoing: rule not met

Incoming: Another: `CCc1cc2c(=O)c(-c3cscn3)coc2c(CN(C)C)c1O`
Outgoing: rule not met

Incoming: Item: `CC1(C)Cc2c(sc3c2C(=O)N(c2ccccc2)C2=NCCCN23)CO1`
Outgoing: rule not met

Incoming: For Cc1ccc(C2CC(C(F)(F)F)n3ncc(C(N)=O)c3N2)cc1 (configuration not stated) then?
Outgoing: rule met

Incoming: Next: `CSc1sc(C(=O)O)c2c1C(=O)CCC2`
Outgoing: rule not met
